# targetDesc: dopaminergic receptors D3 (Homo sapiens, UniProt P35462)
# Sequence (P35462 whole entry): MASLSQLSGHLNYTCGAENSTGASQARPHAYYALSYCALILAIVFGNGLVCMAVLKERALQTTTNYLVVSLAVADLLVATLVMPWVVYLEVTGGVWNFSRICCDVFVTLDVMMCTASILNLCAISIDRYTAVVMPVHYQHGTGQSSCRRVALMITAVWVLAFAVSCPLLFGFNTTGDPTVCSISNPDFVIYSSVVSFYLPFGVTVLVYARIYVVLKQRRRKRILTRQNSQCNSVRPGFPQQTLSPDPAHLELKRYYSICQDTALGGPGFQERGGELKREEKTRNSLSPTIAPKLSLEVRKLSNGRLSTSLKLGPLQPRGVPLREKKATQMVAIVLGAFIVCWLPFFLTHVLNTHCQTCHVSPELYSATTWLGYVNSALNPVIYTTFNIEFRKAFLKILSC
# testMethodNotes: Radioligand binding assay, dopaminergic D3 receptors
# details: test compound 1×10^−6 M
# Description: The specific ligand binding to the receptors is defined as the difference between the total binding and the non-specific binding determined in the presence of the excess of unlabelled ligand. The results are expressed as a percent of control specific binding ((measured specific binding/control specific binding)×100) and as a percent inhibition of control specific binding (100−((measured specific binding/control specific binding)×100)) obtained in the presence of the test compounds. […]
measurementKind: inhibition at 1 µM (%)
Hi! Could you send only the number? It should be in %, unit omitted.

Query: inhibition at 1 µM; subject: O=S(=O)(NCC1CCN(CCCc2noc3cc(F)ccc23)C1)c1ccc2cc(Cl)ccc2c1 (centres unmarked)
Response: 89

Query: # query: inhibition at 1 µM of entry O=S(=O)(NCC1CCN(CCOc2nsc3ccccc23)C1)c1ccc2ccccc2c1 (centres unmarked)
Response: 52

Query: What inhibition at 1 µM value was documented for this compound, CC(C)(C)c1ccc(S(=O)(=O)NC2CCN(CCCc3noc4cc(F)ccc34)CC2)cc1 ?
Response: 40

Query: For O=S(=O)(NCC1CN(CCOc2cccc3c2OCCO3)C1)c1cc2ccccc2o1 , what is its reported inhibition at 1 µM?
Response: 78

Query: Given the entry N#Cc1ccc(S(=O)(=O)NC2CCN(CCCc3noc4cc(F)ccc34)C2)cc1 (centres unmarked) , report its measured inhibition at 1 µM.
Response: 27

Query: Item under review: O=S(=O)(NC1CCN(CCCc2noc3cc(F)ccc23)CC1)c1csc2ccccc12 . Reported inhibition at 1 µM?
Response: 64

Query: Requested field: inhibition at 1 µM. Item: O=S(=O)(NCC1CCN(CCCc2noc3cc(F)ccc23)C1)c1ccc(Cl)cc1 (centres unmarked)
Response: 71

Query: Consider the compound Cn1ccc2cc(S(=O)(=O)NC3CCN(CCCc4noc5cc(F)ccc45)C3)ccc21 (centres unmarked) and give its measured inhibition at 1 µM.
Response: 95

* * *

Listed here: items and their measured 5-HT2A ag [%].
# targetDesc: 5-HT2A serotoninergic receptors (Homo sapiens)
# Sequence (P28223 whole entry): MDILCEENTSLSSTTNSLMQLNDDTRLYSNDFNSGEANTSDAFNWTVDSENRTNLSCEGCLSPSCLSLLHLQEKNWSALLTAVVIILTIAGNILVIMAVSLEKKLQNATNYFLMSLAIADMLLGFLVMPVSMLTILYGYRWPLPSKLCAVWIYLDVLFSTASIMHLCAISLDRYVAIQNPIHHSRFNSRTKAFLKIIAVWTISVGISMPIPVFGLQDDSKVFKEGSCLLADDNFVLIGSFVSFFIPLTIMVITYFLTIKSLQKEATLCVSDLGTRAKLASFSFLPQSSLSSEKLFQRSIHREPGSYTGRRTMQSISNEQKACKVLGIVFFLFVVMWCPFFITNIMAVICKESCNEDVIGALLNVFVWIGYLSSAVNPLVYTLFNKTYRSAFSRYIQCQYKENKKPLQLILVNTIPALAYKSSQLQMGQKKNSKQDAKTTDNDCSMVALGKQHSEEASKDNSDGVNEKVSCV
# testMethodNotes: Cellular functional assay, 5-HT2A serotoninergic receptors
# Format: cell-based
// units = %; emit number, no label

O=S(=O)(NC1CCN(CCCc2noc3cc(F)ccc23)C1)c1cc2ccccc2s1 (stereo not shown) | −2
Cc1cc(S(=O)(=O)NC2CCN(CCCc3noc4cc(F)ccc34)C2)c(C)s1 (stereo not shown) | −2
O=S(=O)(N[C@H]1CCN(CCCc2noc3cc(F)ccc23)C1)c1cc2ccccc2s1 | 1
O=S(=O)(NC1CN(CCOc2cccc3[nH]ccc23)C1)c1ccc2ccccc2c1 | −2
O=S(=O)(NC1CCN(CCCc2c[nH]c3ccc(F)cc23)C1)c1ccc2ccccc2c1 (stereo not shown) | 34

Query: Name the recorded 5-HT2A ag [%] for O=S(=O)(NCC1CN(CCOc2cccc3c2OCCO3)C1)c1ccc(Cl)c(Cl)c1 .
Response: 1

Query: # lookup: 5-HT2A ag [%] of Cc1cc(S(=O)(=O)N[C@@H]2CCN(CCCc3noc4cc(F)ccc34)C2)c(C)s1
Response: −1

Query: 5-HT2A ag [%] for O=S(=O)(NC1CCN(CCCc2noc3cc(F)ccc23)C1)c1cc2ccc(F)cc2s1 (stereo not shown) ?
Response: 1

* * *

# targetDesc: 5-HT6 receptor (Homo sapiens)
# Construct: purchased PerkinElmer
# Sequence (P50406 whole entry): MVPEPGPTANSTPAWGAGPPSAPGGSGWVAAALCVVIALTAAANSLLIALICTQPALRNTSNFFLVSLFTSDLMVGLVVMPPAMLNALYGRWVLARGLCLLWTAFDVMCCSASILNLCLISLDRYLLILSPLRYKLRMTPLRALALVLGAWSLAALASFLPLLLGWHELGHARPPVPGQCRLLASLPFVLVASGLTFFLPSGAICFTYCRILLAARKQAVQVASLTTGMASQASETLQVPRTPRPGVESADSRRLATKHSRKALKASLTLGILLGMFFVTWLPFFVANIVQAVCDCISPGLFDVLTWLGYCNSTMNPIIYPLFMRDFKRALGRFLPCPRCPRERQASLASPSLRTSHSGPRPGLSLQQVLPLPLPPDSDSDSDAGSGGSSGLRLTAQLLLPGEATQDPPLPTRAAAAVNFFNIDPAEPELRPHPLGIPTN
# testMethodNotes: Radioligand binding assay, serotoninergic 5-HT6 receptors;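 further: test compound at 1 µM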
# details: binding assay result in %, Table 5a
Record label 1 whenever inhibition at 1 µM is at 90% or higher; record label 0 when lower.

O=S(=O)(NCC1CCN(CCCc2noc3cc(F)ccc23)C1)c1cccc(Cl)c1 (centres unmarked) [Compound 243] | label 0

Query: For this compound, is measured inhibition at 1 µM 90% or higher? CCCc1ccc(S(=O)(=O)NCC2CN(CCCc3noc4cc(F)ccc34)C2)cc1 [Compound 157]
Response: label 0

Query: Check this compound for inhibition at 1 µM at or above 90%: O=S(=O)(NCC1CCN(CCOc2cccc3c2OCCO3)C1)c1ccc2scnc2c1 (centres unmarked) [Compound 285]
Response: label 0

Query: Record O=S(=O)(NCC1CCN(CCCc2noc3cc(F)ccc23)C1)c1ccc(Cl)c(Cl)c1 (centres unmarked) [Compound 253] ; criterion: inhibition at 1 µM no lower than 90%. Met?
Response: label 1

Query: Exam item: decide whether the reported inhibition at 1 µM for O=S(=O)(N[C@@H]1CCN(CCCc2noc3cc(F)ccc23)C1)c1cc2ccccc2o1 [Compound 214] is at least 90%.
Response: label 1

Query: inhibition at 1 µM >= 90% for O=S(=O)(NC1CCN(CCCc2noc3cc(F)ccc23)C1)c1cccc(O)c1 (centres unmarked) [Compound 18] ?
Response: label 0

Query: Threshold query (inhibition at 1 µM >= 90%) on O=S(=O)(NCC1CCN(CCCc2noc3cc(F)ccc23)C1)c1ccc2ccccc2c1 (centres unmarked) [Compound 240]
Response: label 1

Query: Say whether Cc1c(S(=O)(=O)NCC2CN(CCOc3cccc4ccccc34)C2)sc2ccc(Cl)cc12 [Compound 167] shows inhibition at 1 µM of 90% or more.
Response: label 1

* * *

# targetDesc: M3 muscarinic receptors (Homo sapiens)
# Construct: expressed in transfected cells; host or cells: CHO cells
# Sequence (P20309 whole entry): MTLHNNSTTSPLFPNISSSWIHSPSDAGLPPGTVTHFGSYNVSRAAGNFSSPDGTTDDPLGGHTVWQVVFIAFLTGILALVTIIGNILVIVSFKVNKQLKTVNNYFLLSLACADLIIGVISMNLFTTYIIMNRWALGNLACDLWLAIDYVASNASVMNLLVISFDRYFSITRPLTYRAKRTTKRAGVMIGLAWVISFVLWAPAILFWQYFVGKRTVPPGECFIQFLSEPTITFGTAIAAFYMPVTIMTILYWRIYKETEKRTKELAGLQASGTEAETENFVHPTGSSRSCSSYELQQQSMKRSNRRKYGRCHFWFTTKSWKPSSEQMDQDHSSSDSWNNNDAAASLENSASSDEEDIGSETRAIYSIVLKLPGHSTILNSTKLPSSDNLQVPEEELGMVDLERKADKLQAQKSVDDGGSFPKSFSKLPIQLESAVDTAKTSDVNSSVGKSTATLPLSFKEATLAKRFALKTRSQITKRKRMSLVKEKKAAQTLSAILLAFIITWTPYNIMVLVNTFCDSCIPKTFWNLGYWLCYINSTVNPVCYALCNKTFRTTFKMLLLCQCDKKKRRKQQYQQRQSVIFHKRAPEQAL
# testMethodNotes: Radioligand binding assay, muscarinic M3 receptors
# details: test compound 1×10^−6 M
measurementKind: inhibition at 1 µM (%)
Response body: numeric value in %, unit text excluded.

Record excerpt, results attached:
O=S(=O)(N[C@H]1CCN(CCCc2noc3cc(F)ccc23)C1)c1cc2ccccc2o1 | 39
O=S(=O)(NC1CCN(CCCc2noc3cc(F)ccc23)C1)c1csc2ccccc12 (centres unmarked) | 11
O=S(=O)(NC1CCN(CCCc2noc3cc(F)ccc23)C1)c1ccc2ccccc2c1 (centres unmarked) | -11
O=S(=O)(NCC1CCN(CCCc2noc3cc(F)ccc23)C1)c1cccc2ccccc12 (centres unmarked) | 23
Cc1c(S(=O)(=O)NC2CCN(CCCc3noc4cc(F)ccc34)C2)sc2ccc(F)cc12 (centres unmarked) | 13
O=S(=O)(NC1CCN(CCCc2c[nH]c3ccc(F)cc23)C1)c1ccc(Cl)cc1 (centres unmarked) | 17

Query: Tell me the measured inhibition at 1 µM of O=S(=O)(NCC1CCN(CCOc2cccc3c2OCCO3)C1)c1ccc(F)cc1 (centres unmarked) , please.
Response: -2

Query: Quick one: inhibition at 1 µM of COc1cccc(S(=O)(=O)NCC2CN(CCCc3noc4cc(F)ccc34)C2)c1 ?
Response: -4

* * *

# targetDesc: M3 muscarinic receptors (Homo sapiens)
# Construct: expressed in transfected cells; host or cells: CHO cells
# testMethodNotes: Radioligand binding assay, muscarinic M3 receptors
# details: test compound 1×10^−6 M
measurementKind: M3 [%] (%)
Enter your answer as a number in %; do not include the unit.

Cc1cccc(S(=O)(=O)NC2CN(CCOc3cccc4c3OCCO4)C2)c1 | 1

Query: Would you mind telling me what M3 [%] value was observed for O=S(=O)(NC1CN(CCOc2cccc3c2OCCO3)C1)c1cccc2ccccc12 ?
Response: 1

Query: // returns reported M3 [%] for input O=S(=O)(NC1CCN(CCOc2cccc3[nH]ccc23)CC1)c1ccccc1
Response: −1

Query: What value of M3 [%] has been recorded for this entry: CC1(C)Cc2cccc(OCCN3CCC(NS(=O)(=O)c4ccc5ccccc5c4)CC3)c2O1
Response: −7

* * *

Entries annotated with measured Kb
# targetDesc: 5-HT7 serotoninergic receptors (Homo sapiens, UniProt P34969)
# Sequence (P34969 whole entry): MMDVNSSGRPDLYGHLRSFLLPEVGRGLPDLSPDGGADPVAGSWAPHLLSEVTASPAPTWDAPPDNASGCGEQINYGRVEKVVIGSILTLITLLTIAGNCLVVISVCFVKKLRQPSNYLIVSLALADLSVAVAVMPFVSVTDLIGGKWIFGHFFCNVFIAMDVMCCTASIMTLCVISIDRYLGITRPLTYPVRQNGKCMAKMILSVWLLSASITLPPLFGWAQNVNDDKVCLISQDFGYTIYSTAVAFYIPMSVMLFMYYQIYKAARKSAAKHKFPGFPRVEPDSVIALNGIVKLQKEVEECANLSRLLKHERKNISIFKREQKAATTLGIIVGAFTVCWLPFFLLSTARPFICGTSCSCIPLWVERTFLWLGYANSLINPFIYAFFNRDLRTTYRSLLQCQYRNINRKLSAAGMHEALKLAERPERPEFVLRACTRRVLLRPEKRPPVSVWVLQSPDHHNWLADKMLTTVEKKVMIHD
# testMethodNotes: Cellular functional assay, 5-HT7 serotoninergic receptors
# Format: cell-based
# details: apparent dissociation constant, modified Cheng Prusoff equation; read-out: 5-HT7 antag Kb
Numbers only; they are read as nM.

Worked examples, 3 molecules total:
O=S(=O)(N[C@@H]1CCN(CCCc2noc3cc(F)ccc23)C1)c1cc2ccccc2s1 | 0.57
O=S(=O)(NC1CCN(CCCc2noc3cc(F)ccc23)CC1)c1cccc2ccccc12 | 0.077
O=S(=O)(NC1CCN(CCCc2noc3cc(F)ccc23)C1)c1cc2ccccc2s1 (stereo not shown) | 1.4

Attention now shifts to the item below.
Query: Kb for O=S(=O)(NC1CCN(CCCc2noc3cc(F)ccc23)C1)c1ccc2ccccc2c1 (stereo not shown) ?
Response: 1.7

* * *

# targetDesc: α2C adrenergic receptors (Homo sapiens, UniProt P18825)
# Construct: expressed in transfected cells; host or cells: CHO cells
# Sequence (P18825 whole entry): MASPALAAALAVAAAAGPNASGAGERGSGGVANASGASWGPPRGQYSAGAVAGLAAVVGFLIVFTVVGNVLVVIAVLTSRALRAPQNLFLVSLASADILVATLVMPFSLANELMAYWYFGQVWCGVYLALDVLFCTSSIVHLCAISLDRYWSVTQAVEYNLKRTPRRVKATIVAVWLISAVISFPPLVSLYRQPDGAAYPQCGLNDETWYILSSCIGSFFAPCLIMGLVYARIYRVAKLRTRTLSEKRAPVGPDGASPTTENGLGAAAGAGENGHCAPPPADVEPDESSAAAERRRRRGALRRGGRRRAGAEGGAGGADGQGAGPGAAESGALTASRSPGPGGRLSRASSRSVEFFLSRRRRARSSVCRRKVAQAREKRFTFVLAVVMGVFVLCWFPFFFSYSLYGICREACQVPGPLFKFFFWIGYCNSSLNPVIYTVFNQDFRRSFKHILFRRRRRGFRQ
# testMethodNotes: Radioligand binding assay, adrenergic α2C receptors
# details: test compound 1×10^−6 M
measurementKind: inhibition at 1 µM (%)
Output spec: scalar in %, unitless text.

Example entries begin here.
O=S(=O)(NC1CCN(CCCc2noc3cc(F)ccc23)C1)c1cc2ccc(F)cc2s1 (centres unmarked) [Compound 234] | 90
O=S(=O)(NC1CCN(CCCc2c[nH]c3ccc(F)cc23)C1)c1ccc(Cl)cc1 (centres unmarked) [Compound 77] | 78
O=S(=O)(NCC1CCN(CCCc2noc3cc(F)ccc23)C1)c1ccc2ccccc2c1 (centres unmarked) [Compound 240] | 84
O=S(=O)(N[C@H]1CCN(CCCc2noc3cc(F)ccc23)C1)c1ccc2cc(Cl)ccc2c1 [Compound 201] | 89
Cc1cccc(S(=O)(=O)NC2CN(CCOc3cccc4[nH]ccc34)C2)c1 [Compound 48] | 105
O=S(=O)(NCC1CN(CCCc2noc3cc(F)ccc23)C1)c1cc2ccccc2s1 [Compound 127] | 93
Cc1cc(S(=O)(=O)NC2CCN(CCCc3noc4cc(F)ccc34)C2)c(C)s1 (centres unmarked) [Compound 221] | 88

# next molecule below
Query: Suppose we examine the molecule Cc1c(S(=O)(=O)N[C@H]2CCN(CCCc3noc4cc(F)ccc34)C2)sc2ccc(F)cc12 [Compound 203] ; what inhibition at 1 µM value has been reported?
Response: 93
